- Test system: BT-549 breast
- test protocol: NCI tumour cell line growth inhibition, 48 h
Examples of compounds with documented TGI follow.
Provide only the numeric value, understood in µM.

# compound, unit text, TGI
data = [
    ("Cc1cc(Cc2cc(C)cc(C(C)(C)C)c2O)c(O)c(C(C)(C)C)c1", "µM", 23.9),
    ("COc1cccc(/C=C/c2cnc3ccccc3n2)c1OC", "µM", 53.1),
]

// next entry
Could you tell me which TGI is on file for COc1cc2cc(C(=O)N3CC(COS(C)(=O)=O)c4c3cc(N)c3ccccc43)[nH]c2c(OC)c1OC (configuration not stated) ?
0.25

====

- System: HCT-116 colon
- test protocol: NCI tumour cell line growth inhibition, 48 h
Where a SMILES comes first, the peptide text is derived from it. The star is where a group is joined. Cbz = O=C(OCc1ccccc1)*; OBn = c1ccc(CO*)cc1
# TGI annotations

Look over these answered cases.
# compound, TGI
records = [
    ("C=CC(=O)N[C@H]1CCOC[C@H]1Nc1ncc2cc(-c3c(Cl)c(OC)cc(OC)c3Cl)ccc2n1", "57.2 µM"),
    ("COC(=O)C(Cc1ccc(O)cc1)NC(=O)C(CC(=O)OCc1ccccc1)NC(=O)OCc1ccccc1 (stereo not given) (Cbz-Asp(OBn)-Tyr-OMe; configuration not given here)", "35.1 µM"),
    ("COc1ccc2c(c1)C(=O)/C(=C/c1ncc([N+](=O)[O-])n1C)O2", "0.48 µM"),
    ("CC1=CCC23C(C1)OC(Br)(C=CC2(C)O)C3(C)C (stereo not given)", "> 100 µM"),
    ("[N-]=[N+]=CC(=O)OCC1SCCCS1", "> 100 µM"),
]

What does the data say about its TGI? Entry: CC(C)(C)C1(COC(=O)c2ccc(N)cc2)COC1
> 100 µM

Requested field: TGI. Item: O=C(N/N=C/c1cc(Cl)cc(Cl)c1[O-])c1ccccc1O.O=C(N/N=C/c1cc(Cl)cc(Cl)c1[O-])c1ccccc1O.[Ni+2]
1.5 µM

Fill in: TGI of CC(=O)CCCCO is ___
> 100 µM

Which TGI is listed for C#CC(F)(F)[C@]1(O)CC[C@H]2[C@@H]3CCC4=CC(=O)CCC4=C3[C@@H](c3ccc(C(C)=O)cc3)C[C@@]21C ?
42.6 µM

What value of TGI has been recorded for this entry: C/C(=N\NC(N)=S)C(CN(CC(C)C)CC(C)C)C(=O)Nc1ccc(C)cc1C (stereo not given)
> 100 µM

====

- System: SN12C renal
- test protocol: NCI tumour cell line growth inhibition, 48 h
Where a SMILES comes first, the peptide text is derived from it. The star is where a group is joined. Cbz = O=C(OCc1ccccc1)*; OBn = c1ccc(CO*)cc1
Kindly return 1 (yes) if reported TGI is no lower than 20 µM; return 0 (no) if it is lower.

For orientation, consider the following solved cases.
# compound, assigned class
data = [
    ("CN(C)CCNC(=O)c1cccc2nc3c(nc12)-c1ccccc1C3=O", "1 (yes)"),
    ("CCCCOP1(=O)C=C(C)C(=C(Cl)Cl)C(C)=C1 (stereo not drawn)", "1 (yes)"),
    ("COC(OC)C1OC(CO)C(n2ccc(N)nc2=O)C1O (stereo not drawn)", "1 (yes)"),
    ("Cc1cc(=O)oc2cc(OCc3c(F)cccc3Cl)ccc12", "1 (yes)"),
    ("CCc1ccc2[nH]c(O)c(-c3[nH]c4ccccc4c3N=O)c2c1", "0 (no)"),
    ("COC(=O)C(Cc1ccc(O)cc1)NC(=O)C(CC(=O)OCc1ccccc1)NC(=O)OCc1ccccc1 (stereo not drawn) (Cbz-Asp(OBn)-Tyr-OMe; configuration not given here)", "1 (yes)"),
    ("C=C1C(=O)O[C@H]2[C@H]1CC/C(COC(=O)CSCC(=O)OC/C1=C/CC[C@@]3(C)O[C@H]3[C@H]3OC(=O)C(=C)[C@@H]3CC1)=C\\CC[C@@]1(C)O[C@@H]21", "0 (no)"),
    ("COc1ccc(Cl)cc1NC(=O)C(Br)C(Br)C(=O)O (stereo not drawn)", "0 (no)"),
    ("C=C(c1ccc(C(=O)N(C)c2ccccc2N)cc1)C(C)N1C(=O)[C@H]2CCCN2C(=O)c2ccccc21 (stereo partly drawn)", "1 (yes)"),
    ("C=CCC(N[C@H](CO)c1ccccc1)c1cn(C(=O)OCC)c2ccccc12 (stereo partly drawn)", "1 (yes)"),
]

Test whether the compound COc1cc(/C=C2\CN(C)C/C(=C\c3cc(CN4CCCCC4)c(O)c(OC)c3)C2=O)cc(CN2CCCCC2)c1O records TGI of 20 µM or higher.
0 (no)

====

- System: BT-549 breast
- test protocol: NCI tumour cell line growth inhibition, 48 h
*1 amine or outer side, *2 acyl side, *3 side chain or, on linkers, in order; H or OH if unused. Where a SMILES comes first, the peptide text is derived from it. Bridges are numbered along the chain shown (N, C = ends). Roman numbers before positions name the chains, in order. [ ]: non-standard residue; d: D form. Actinocin(9to1) = Cc1c2oc3c(C)ccc(C(=O)[*:1])c3nc-2c(C(=O)[*:2])c(N)c1=O; NMeV = CN[CH](C(=O)O)C(C)C; Sar = CNCC(=O)O
Binary classification by TGI, with 10 µM as an inclusive lower bound for fulfilled; all other cases are not fulfilled.

Example entries begin here.
# compound, assigned class
rows = [
    ("C=C(CC[C@@H](C(=O)O)[C@H]1[C@H](O)C[C@@]2(C)C3=CC[C@@H](C(=C)C)[C@](C)(CCC(=O)O)C3=CC[C@]12C)C(C)C", "fulfilled"),
    ("CN(NC(=O)CCCl)C1=NCCCCN1", "fulfilled"),
    ("Cc1[nH]c2ccccc2c1C=Nc1ccc(N=Cc2c(C)[nH]c3ccccc23)cc1", "fulfilled"),
    ("CC(C)c1ccc(/C=C2\\CSCC3=C2NC(=S)NC3c2ccc(C(C)C)cc2)cc1 (configuration not stated)", "fulfilled"),
    ("O=C(O)c1cc(N=Cc2ccccc2O)cc(C(=O)O)c1", "fulfilled"),
]

Is TGI at least 10 µM? Consider O=C(NC1CCN(Cc2ccccc2)CC1)c1cc2nc(-c3ccc(Cl)s3)cc(C(F)(F)F)n2n1
fulfilled

Reported TGI reaches at least 10 µM for N#CC1=C(N)NC(=O)NC12Nc1ccccc1S2 (configuration not stated) ?
fulfilled

I'd appreciate it if you could say whether CO[C@@H]1CC(=O)C2(CC(=O)O[C@@H]2/C=C(\C)CCC=C(C)C)C[C@@H]1O (some centres not stated) has TGI at least equal to 10 µM.
not fulfilled

Item CC(CO)C1C[C@H](O)[C@@]2(C)CC(=O)C=C(CO)[C@@H]2C1 (some centres not stated) with TGI of 10 µM or above?
fulfilled

TGI >= 10 µM for O=C(O)c1cc2cc(OCc3ccccc3)c(OCc3ccccc3)cc2[nH]1 ?
fulfilled

Reported TGI reaches at least 10 µM for Cc1cn(CC2=NCC(C)(C)N2)c(=O)[nH]c1=O ?
fulfilled

Hello, I need to know if CSc1c(C#N)c(=O)[nH]c2n[nH]c(C)c12 has measured TGI not below 10 µM. Thanks!
fulfilled

Check this compound for TGI at or above 10 µM: Cc1c2oc3c(C)ccc(C(=O)NC4C(=O)NC(C(C)O)C(=O)N5CCCC5C(=O)N(C)CC(=O)N(C)C(C(C)C)C(=O)OC4C)c3nc-2c(C(=O)NC2C(=O)NC(C(C)O)C(=O)N3CCCC3C(=O)N(C)CC(=O)N(C)C(C(C)C)C(=O)OC2C)c(N)c1=O (configuration not stated) (I: TTP[Sar][NMeV] / II: TTP[Sar][NMeV]; ester I:1-I:C, II:1-II:C; linker I:N-II:N via Actinocin(9to1); configuration not given here)
not fulfilled

Has Cc1sc(/N=C/c2c[nH]c3ccccc23)c(C#N)c1C a recorded TGI greater than or equal to 10 µM?
fulfilled

Reported TGI reaches at least 10 µM for CC(C)(C)C1(COC(=O)c2ccc(N)cc2)COC1 ?
fulfilled

Given the entry COc1cccc2c1C(=O)c1c(O)c3c(c(O)c1C2=O)C[C@@](O)(C(=O)CO)C[C@@H]3OC1C[C@H](N)[C@H](O)[C@H](C)O1 (some centres not stated) , answer whether its TGI meets or surpasses 10 µM.
not fulfilled

====

- Tested on: RPMI-8226 leukemia
- test protocol: NCI tumour cell line growth inhibition, 48 h; in the data active = GI50 below about 0.43 µM; inactive = the rest
Pick from active, inactive when you respond.

Solved entries (count: 3):
# compound, assigned class
measured = [
    ("O=C(CCl)N1c2ccccc2Sc2ccc3ccccc3c21", "inactive"),
    ("COc1cccc2c1C(=O)c1c(O)c3c(c(O)c1C2=O)C[C@@](O)(C(=O)CO)C[C@@H]3OC1C[C@H](N)[C@H](O)[C@H](C)O1 (stereo not given in full)", "active"),
    ("COc1cc(-c2nc3sc4c(c3c(=O)[nH]2)CCCCCC4)cc(OC)c1OC", "inactive"),
]

How was C=CCC(N[C@H](CO)c1ccccc1)c1cn(C(=O)OCC)c2ccccc12 (stereo not given in full) classified in this test?
inactive

Please state the recorded outcome for this compound: CSc1ccc2c3c(n(C[C@H](O)CO)c(=O)c2c1)-c1ccccc1C3=O
inactive
